Test system: KAI3 (IL-2 2.5 ng/mL);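 note: normalised to DMSO-only wells as negative and benzethonium chloride as positive control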
Assay: percent inhibition of viability; higher = more inhibition
Settings: 72 h; 2500 nM
readout: percent inhibition of viability (%)

>>> measured_result("CC(=O)OC[C@H]1O[C@@H]([S-])[C@H](OC(C)=O)[C@@H](OC(C)=O)[C@@H]1OC(C)=O.CCP(CC)CC.[Au+] [Auranofin] (max concentration tested 2500 nM)")
71.4
>>> measured_result("O=C(NOCCO)c1ccc2cncn2c1Nc1ccc(I)cc1F [GDC-0623] (max concentration tested 2500 nM)")
24.8
>>> measured_result("O=C(Nc1cc(Cl)cc2c1[nH]c1cnccc12)c1cccnc1 [PS-1145] (max concentration tested 25000 nM)")
48.5
>>> measured_result("COc1ccc2c(OCc3nnc4ccc(-c5ccccc5)nn34)ccnc2c1 [AMG-208] (max concentration tested 2500 nM)")
11.6
